B1: library; numbered along this chain (parent)
chain: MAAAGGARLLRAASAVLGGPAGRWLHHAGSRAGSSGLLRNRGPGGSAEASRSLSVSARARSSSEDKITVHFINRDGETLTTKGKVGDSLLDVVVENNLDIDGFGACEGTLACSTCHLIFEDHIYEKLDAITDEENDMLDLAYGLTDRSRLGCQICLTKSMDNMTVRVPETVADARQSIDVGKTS

variants of: B1; experiment: scaled log2 fold change in cell abundance, elesclomol vs control (0 = silent mean, 1 = nonsense mean) (scaled log2 ratio); higher = higher viability under elesclomol (loss of FDX1 cuproptosis function); details: with ABC1 FDX1 KO; elesclomol 5 nM; glucose 10 mM; 14 days;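 further: variant abundance is its share of total variant reads in each endpoint sample, from next-generation sequencing of the integrated ORF PCR-amplified out of genomic DNA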
Binary call on scaled log2 fold change: criterion met from 0.2 upward, criterion not met beneath that.

Worked set:
{"variant": "R58M", "category.label": "criterion met"}
{"variant": "I67M", "category.label": "criterion met"}
{"variant": "R23C", "category.label": "criterion met"}
{"variant": "G76K", "category.label": "criterion not met"}
{"variant": "V69C", "category.label": "criterion not met"}

input: Record `L90P` ; criterion: scaled log2 fold change no lower than 0.2. Met?
output: criterion met

input: What do you get for `S62A` ?
output: criterion not met

input: What do you get for `Q153I` ?
output: criterion not met

Data provenance: the supplement of paper PMC12855868
